- assay-text: Pharmacokinetics in female Lewis rats, noncompartmental analysis
- details: rat, in vivo, sc, 10 mg/kg
reported-endpoint: bioavailability (%)

>>> experimental_value("Cc1ccccc1NC(=O)Nc1ccc(CC(=O)N(C)[C@@H](CC(C)C)C(=O)NCC[C@H](NC(=O)[C@@H]2CCCN2S(=O)(=O)c2cc(Cl)cc(Cl)c2)C(=O)O)cc1")
20

* * *

- assayed-system: α4β1 (Homo sapiens, UniProt P05556+P13612)
- Sequence (P13612 34-1032): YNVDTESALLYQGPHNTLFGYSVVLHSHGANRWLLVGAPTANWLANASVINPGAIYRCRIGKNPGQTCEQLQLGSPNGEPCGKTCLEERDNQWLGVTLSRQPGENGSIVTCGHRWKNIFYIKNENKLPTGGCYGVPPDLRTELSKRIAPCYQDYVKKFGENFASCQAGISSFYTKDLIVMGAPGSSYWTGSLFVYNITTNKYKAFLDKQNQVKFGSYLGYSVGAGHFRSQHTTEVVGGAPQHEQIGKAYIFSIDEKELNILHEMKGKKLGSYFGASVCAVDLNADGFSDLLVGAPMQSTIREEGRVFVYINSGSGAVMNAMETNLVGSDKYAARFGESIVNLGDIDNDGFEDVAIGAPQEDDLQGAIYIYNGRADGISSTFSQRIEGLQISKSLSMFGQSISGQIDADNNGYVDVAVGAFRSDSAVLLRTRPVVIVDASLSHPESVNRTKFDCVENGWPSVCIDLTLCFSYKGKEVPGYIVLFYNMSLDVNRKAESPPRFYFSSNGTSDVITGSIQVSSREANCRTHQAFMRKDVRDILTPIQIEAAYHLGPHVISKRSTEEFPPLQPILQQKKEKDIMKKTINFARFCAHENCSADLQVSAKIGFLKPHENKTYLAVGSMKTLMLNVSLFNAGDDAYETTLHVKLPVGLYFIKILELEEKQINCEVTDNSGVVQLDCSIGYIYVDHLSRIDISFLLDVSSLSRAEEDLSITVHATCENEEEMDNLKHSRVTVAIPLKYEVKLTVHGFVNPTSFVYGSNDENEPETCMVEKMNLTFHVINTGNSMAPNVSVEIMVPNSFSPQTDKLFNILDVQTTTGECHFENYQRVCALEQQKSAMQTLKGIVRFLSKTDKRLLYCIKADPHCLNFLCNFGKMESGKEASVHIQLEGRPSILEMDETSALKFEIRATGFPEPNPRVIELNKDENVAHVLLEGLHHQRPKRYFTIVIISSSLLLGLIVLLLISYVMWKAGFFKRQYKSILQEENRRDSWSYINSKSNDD
- Sequence (P05556 21-798): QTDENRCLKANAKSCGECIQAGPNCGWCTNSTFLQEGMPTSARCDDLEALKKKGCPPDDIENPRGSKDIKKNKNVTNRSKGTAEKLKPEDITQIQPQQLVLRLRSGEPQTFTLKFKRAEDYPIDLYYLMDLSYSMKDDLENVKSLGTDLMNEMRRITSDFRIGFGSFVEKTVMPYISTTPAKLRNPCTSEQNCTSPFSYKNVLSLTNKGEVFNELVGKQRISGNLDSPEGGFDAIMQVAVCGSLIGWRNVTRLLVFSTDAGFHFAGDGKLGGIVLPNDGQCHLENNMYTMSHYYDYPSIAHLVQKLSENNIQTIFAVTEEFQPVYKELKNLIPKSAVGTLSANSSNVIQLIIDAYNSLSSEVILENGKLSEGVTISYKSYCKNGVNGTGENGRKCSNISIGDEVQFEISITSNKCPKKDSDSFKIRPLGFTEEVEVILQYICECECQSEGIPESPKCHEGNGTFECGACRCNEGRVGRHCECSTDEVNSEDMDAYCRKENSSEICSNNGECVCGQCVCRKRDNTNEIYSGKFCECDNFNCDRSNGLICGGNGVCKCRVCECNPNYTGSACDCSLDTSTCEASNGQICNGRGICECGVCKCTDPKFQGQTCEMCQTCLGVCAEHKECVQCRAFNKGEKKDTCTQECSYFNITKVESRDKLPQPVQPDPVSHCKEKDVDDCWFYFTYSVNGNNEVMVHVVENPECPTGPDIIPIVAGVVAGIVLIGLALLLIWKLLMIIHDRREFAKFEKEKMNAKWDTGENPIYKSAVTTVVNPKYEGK
- assay-text: Kinetic binding to α4β1 on Jurkat cells, competition with 35S-B as probe for free α4β1
- details: calculated from on- and off-rate constants, Jurkat cells
Reported log10 of Kd by item:
reported-endpoint: log10 of Kd (log10 of the value in nM)

>>> experimental_value("Cc1ccccc1NC(=O)Nc1ccc(CC(=O)N(C)C(CC(C)C)C(=O)NCCC(NC(=O)[C@@H]2C[C@H](NC(=O)CCCCCN)CN2S(=O)(=O)c2ccccc2)C(=O)O)cc1 (relative stereo)")
-1.21
>>> experimental_value("Cc1ccccc1NC(=O)Nc1ccc(CC(=O)N(C)[C@@H](CC(C)C)C(=O)NCC[C@H](NC(=O)C2CCCN2S(=O)(=O)c2ccccc2)C(=O)O)cc1 (stereo partly shown)")
-2.30
>>> experimental_value("Cc1ccccc1NC(=O)Nc1ccc(CC(=O)N(C)[C@@H](CC(C)C)C(=O)NCC[C@H](NC(=O)[C@@H]2CCCN2S(=O)(=O)c2cc(Cl)cc(Cl)c2)C(=O)O)cc1")
-2.05
>>> experimental_value("Cc1ccccc1NC(=O)Nc1ccc(CC(=O)N(C)[C@@H](CC(C)C)C(=O)NCC[C@H](NC(=O)[C@@H]2C[C@@H](N)CN2S(=O)(=O)c2ccccc2)C(=O)O)cc1")
-1.40
>>> experimental_value("Cc1ccccc1NC(=O)Nc1ccc(CC(=O)N(C)[C@@H](CC(C)C)C(=O)NCC[C@H](NC(=O)[C@@H]2C[C@H](N)CN2S(=O)(=O)c2ccccc2)C(=O)O)cc1")
-1.15
>>> experimental_value("Cc1ccccc1NC(=O)Nc1ccc(CC(=O)N(C)[C@@H](CCCCNC(=O)CCCCCN)C(=O)NCC[C@H](NC(=O)[C@@H]2CCCN2S(=O)(=O)c2ccccc2)C(=O)O)cc1")
-0.60
>>> experimental_value("Cc1ccccc1NC(=O)Nc1ccc(CC(=O)N(C)C(CC(C)C)C(=O)NCCC(NC(=O)[C@@H]2C[C@@H](NC(=O)CCCCCN)CN2S(=O)(=O)c2ccccc2)C(=O)O)cc1 (relative stereo)")
-1.36

* * *

- assay-text: Pharmacokinetics in female Lewis rats, noncompartmental analysis
- details: rat, in vivo, iv, 1 mg/kg
reported-endpoint: clearance (mL/min/kg)

>>> experimental_value("Cc1ccccc1NC(=O)Nc1ccc(CC(=O)N(C)[C@@H](CC(C)C)C(=O)NCC[C@H](NC(=O)[C@@H]2CCCN2S(=O)(=O)c2cc(Cl)cc(Cl)c2)C(=O)O)cc1")
7.1

* * *

- assay-text: Pharmacokinetics in female Lewis rats, noncompartmental analysis
- details: rat, in vivo, iv, 1 mg/kg
reported-endpoint: half-life (h)

>>> experimental_value("Cc1ccccc1NC(=O)Nc1ccc(CC(=O)N(C)[C@@H](CC(C)C)C(=O)NCC[C@H](NC(=O)[C@@H]2CCCN2S(=O)(=O)c2cc(Cl)cc(Cl)c2)C(=O)O)cc1")
1.1

Ref: patent US7196112B2
